Reference source: patent US10323028B2

Target: GLS1 (Homo sapiens (Human), UniProt O94925)
Sequence (O94925 63-669): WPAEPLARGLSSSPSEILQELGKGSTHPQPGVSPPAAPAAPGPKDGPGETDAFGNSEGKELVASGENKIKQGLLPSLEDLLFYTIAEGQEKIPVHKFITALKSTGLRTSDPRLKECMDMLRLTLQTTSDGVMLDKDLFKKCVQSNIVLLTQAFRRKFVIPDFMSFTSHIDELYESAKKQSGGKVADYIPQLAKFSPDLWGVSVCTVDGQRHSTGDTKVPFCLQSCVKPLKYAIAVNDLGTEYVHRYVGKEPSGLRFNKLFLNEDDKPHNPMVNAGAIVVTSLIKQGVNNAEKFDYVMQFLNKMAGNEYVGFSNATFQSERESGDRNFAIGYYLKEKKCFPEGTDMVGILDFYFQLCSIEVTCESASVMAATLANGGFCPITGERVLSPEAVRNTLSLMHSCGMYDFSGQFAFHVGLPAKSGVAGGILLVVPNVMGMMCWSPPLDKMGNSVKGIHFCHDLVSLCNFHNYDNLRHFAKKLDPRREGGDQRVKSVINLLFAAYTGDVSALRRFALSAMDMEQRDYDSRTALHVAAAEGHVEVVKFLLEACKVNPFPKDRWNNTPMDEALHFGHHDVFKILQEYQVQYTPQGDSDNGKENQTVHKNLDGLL
Assay: GLS Enzyme Potency Assay (Glutamate Oxidase/AmplexRed coupled assay)
Assay type: biochemical
Conditions: 6His tagged GLS protein (amino acids 63-669), recombinant; read-out: Assay a) enz IC50
METRIC: IC50 (nM)

{"columns": ["MOLECULE", "READOUT_NUMBER"],
 "data": [
  ["COC(C(=O)Nc1nnc(N[C@@H]2CCN(c3ccc(C)nn3)C2)s1)c1cccc(N2CC(F)(F)C2)c1 (stereo partly drawn) [Example 40]", 311],
  ["COc1cc(OC)cc([C@H](OC)C(=O)Nc2nnc(N[C@@H]3CCN(c4nccnn4)C3)s2)c1 (single isomer, unassigned) [Example 16(a)]", 25.2],
  ["CO[C@H](C(=O)Nc1nnc(N[C@@H]2CCN(c3nccnn3)C2)s1)c1cccc(N2CC(F)(F)C2)c1 (single isomer, unassigned) [14(b)]", 660]
]}

----------
Tested on: NCI-H1703 cells
Assay: GLS Cell Proliferation Assay (NCI-H1703 cell proliferation)
Type: cell-based
Conditions: NCI-H1703 cells, 5 days; read-out: Assay c) Prolif Mean IC50
Overview of reported IC50 across a group of compounds:
METRIC: IC50 (nM)

{"columns": ["COMPOUND", "TARGET", "METRIC", "READOUT_NUMBER"],
 "data": [
  ["COC1CN(c2cccc([C@H](OC)C(=O)Nc3nnc(N[C@@H]4CCN(c5ccc(C)nn5)C4)s3)c2)C1 (single isomer, unassigned) [12(b)]", "NCI-H1703 cells", "IC50", 524],
  ["COC(C(=O)Nc1nnc(N[C@@H]2CCN(c3cccnn3)C2)s1)c1ccc(F)c(N2CC(F)(F)C2)c1 (some centres unmarked) [Example 37]", "NCI-H1703 cells", "IC50", 21.1],
  ["COC(C(=O)Nc1nnc(N[C@@H]2CCN(c3ccc(C)nn3)C2)s1)c1cccc(N2CC(F)(F)C2)c1 (some centres unmarked) [Example 39]", "NCI-H1703 cells", "IC50", 5.94],
  ["CCO[C@H](C(=O)Nc1nnc(N[C@@H]2CCN(c3cccnn3)C2)s1)c1cccc(OC(F)(F)F)c1 (single isomer, unassigned) [Example 19(a)]", "NCI-H1703 cells", "IC50", 2.61],
  ["CO[C@H](C(=O)Nc1nnc(N[C@@H]2CCN(c3cccnn3)C2)s1)c1ccc(F)c(OC(F)(F)F)c1 (single isomer, unassigned) [Example 20(a)]", "NCI-H1703 cells", "IC50", 6.57],
  ["CO[C@H](C(=O)Nc1nnc(N[C@@H]2CCN(c3nccnn3)C2)s1)c1cccc(N2CC(F)C2)c1 (single isomer, unassigned) [Example 15(a)]", "NCI-H1703 cells", "IC50", 11.6],
  ["CCOC(C(=O)Nc1nnc(N[C@@H]2CCN(c3cccnn3)C2)s1)c1cccc(N2CC(F)(F)C2)c1 (single isomer, unassigned) [Example 29]", "NCI-H1703 cells", "IC50", 1.96],
  ["COC[C@H](C(=O)Nc1nnc(N[C@@H]2CCN(c3cccnn3)C2)s1)c1cccc(OC)c1 (single isomer, unassigned) [Example 5(a)]", "NCI-H1703 cells", "IC50", 11.7],
  ["COC(C(=O)Nc1nnc(N[C@@H]2CCN(c3ccc(C)nn3)C2)s1)c1cccc(N2CC(F)C2)c1 (single isomer, unassigned) [Example 36]", "NCI-H1703 cells", "IC50", 394],
  ["CO[C@H](C(=O)Nc1nnc(N[C@@H]2CCN(c3nccnn3)C2)s1)c1cccc(N2CC(F)C2)c1 (single isomer, unassigned) [15(b)]", "NCI-H1703 cells", "IC50", 376],
  ["CO[C@H](C(=O)Nc1nnc(N[C@@H]2CCN(c3cccnn3)C2)s1)c1cccc(N2CC(F)(F)C2)c1 (single isomer, unassigned) [Example 2(a)]", "NCI-H1703 cells", "IC50", 2.5],
  ["COC(C(=O)Nc1nnc(N[C@@H]2CCN(c3nccnn3)C2)s1)c1cccc(C2COC2)c1 (single isomer, unassigned) [Example 25]", "NCI-H1703 cells", "IC50", 831],
  ["COC(C(=O)Nc1nnc(N[C@@H]2CCN(c3nccnn3)C2)s1)c1cccc(C2COC2)c1 (single isomer, unassigned) [Example 24]", "NCI-H1703 cells", "IC50", 29.1],
  ["COc1cc(OC)cc(C(OC)C(=O)Nc2nnc(N[C@@H]3CCN(c4cccnn4)C3)s2)c1 (single isomer, unassigned) [Example 44]", "NCI-H1703 cells", "IC50", 59.1]
]}
